Where do the numbers come from? From patent EP4682166A1.

targetOrTestSystem: T1, human NMI (N-myc Interacting protein), recombinant protein (human, UniProt Q13287 1-307, limits assumed)
T1 construct: Gene ID: 9111; also called hNMI; antigen
T1 sequence (looked up): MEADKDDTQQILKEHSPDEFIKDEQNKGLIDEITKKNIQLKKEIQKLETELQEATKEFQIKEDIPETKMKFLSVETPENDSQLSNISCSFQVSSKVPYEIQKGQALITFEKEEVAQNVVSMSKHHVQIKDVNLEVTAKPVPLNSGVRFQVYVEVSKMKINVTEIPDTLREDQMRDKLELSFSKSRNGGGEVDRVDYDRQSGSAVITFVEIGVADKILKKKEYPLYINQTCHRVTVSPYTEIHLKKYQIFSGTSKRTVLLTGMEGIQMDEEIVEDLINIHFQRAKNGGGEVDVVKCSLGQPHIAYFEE
procedureDetails: ELISA EC50 against parent B-8
measure: Fold decrease in affinity

>>> observedmeasurement("B-8 mutant T31V (VL) (antibody, V domains shown) VH: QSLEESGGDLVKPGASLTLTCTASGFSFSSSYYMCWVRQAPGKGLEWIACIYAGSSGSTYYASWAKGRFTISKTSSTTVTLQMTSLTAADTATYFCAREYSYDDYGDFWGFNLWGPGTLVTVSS VL: ALVMTQTPSSVSAAVGGTVTINCQASQNIYVNLAWYQQKPGQPPKLLIYGASNLESGVPSRFKGSGSGTEYTLTISDLECDDAATYYCQSSLYSRIADRANAFGGGTEVVVK")
"> 100 fold"
